TARGET OR TEST SYSTEM: UniProtKB Q9UM07
Sequence (Q9UM07 whole entry): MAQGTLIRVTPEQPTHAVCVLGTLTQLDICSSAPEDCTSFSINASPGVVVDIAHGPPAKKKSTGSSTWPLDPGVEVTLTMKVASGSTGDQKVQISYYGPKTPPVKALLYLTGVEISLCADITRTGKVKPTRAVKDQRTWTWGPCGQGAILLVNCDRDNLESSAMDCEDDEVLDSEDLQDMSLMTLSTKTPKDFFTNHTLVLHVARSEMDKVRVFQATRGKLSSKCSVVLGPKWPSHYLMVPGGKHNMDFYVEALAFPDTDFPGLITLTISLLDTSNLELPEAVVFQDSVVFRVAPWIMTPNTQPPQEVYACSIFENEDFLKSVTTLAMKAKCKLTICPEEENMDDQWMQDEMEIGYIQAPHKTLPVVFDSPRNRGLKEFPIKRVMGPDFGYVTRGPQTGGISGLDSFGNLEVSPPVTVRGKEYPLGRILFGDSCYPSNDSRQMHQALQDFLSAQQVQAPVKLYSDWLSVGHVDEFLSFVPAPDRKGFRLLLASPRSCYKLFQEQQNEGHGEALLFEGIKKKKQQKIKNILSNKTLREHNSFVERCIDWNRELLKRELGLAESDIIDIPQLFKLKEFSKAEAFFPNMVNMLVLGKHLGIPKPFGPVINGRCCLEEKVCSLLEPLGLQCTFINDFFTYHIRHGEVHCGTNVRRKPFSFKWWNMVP
TEST NAME: RFMS2 assay (RapidFire mass spectrometry, TSTGGRQGSHH peptide substrate)
Assay type: biochemical
CONDITION DETAILS: 35 nM recombinant human PAD4, 500 μM TSTGGRQGSHH peptide, 30 minutes at room temperature; read-out: RFMS 2 IC50
MEASURED QUANTITY: IC50

Give IC50 for `Cn1c(-c2cc3cccc(OCCO)c3n2CC2CC2)nc2cc3c(cc21)CCN(C[C@H](N)CF)C3=O` tested on UniProtKB Q9UM07.
101 to 500 nM

For UniProtKB Q9UM07, give the measured IC50 of the entry `Cn1c(-c2cc3cccc(OC[C@H]4CNC(=O)O4)c3n2CC2CC2)nc2cc3c(cc21)CCN(C[C@H](N)CF)C3=O`
11 to 100 nM

Report the value of IC50 obtained on UniProtKB Q9UM07 for `CCn1c(-c2nc3cc4c(cc3n2C)CCN(C[C@@H](C)N)C4=O)cc2cccc(OC)c21` .
101 to 500 nM

Give IC50 only, for `COCCn1c(-c2nc3cc4c(cc3n2C)CCN(C[C@@H](C)N)C4=O)cc2cccc(OC)c21` , using UniProtKB Q9UM07 data.
101 to 500 nM

# return IC50 for `Cn1c(-c2cc3ccccc3n2CC2CC2)nc2cc3c(cc21)CCN(C[C@H](N)CF)C3=O` , test system: UniProtKB Q9UM07
101 to 500 nM

# lookup: UniProtKB Q9UM07 IC50, key = `Cn1c(-c2cc3cccc(OCCn4ccnc4)c3n2CC2CC2)nc2cc3c(cc21)CCN(C[C@H](N)CF)C3=O`
11 to 100 nM

Lab note: UniProtKB Q9UM07 assay, enter IC50 for `Cn1c(-c2cc3cccc(OCc4cccnn4)c3n2CC2CC2)nc2cc3c(cc21)CCN(C[C@H](N)CF)C3=O` here
101 to 500 nM

Provide the reported IC50 (system: UniProtKB Q9UM07) for `COC1CCN(c2ccc3cc(-c4nc5cc6c(cc5n4C)CCN(C[C@H](N)CF)C6=O)n(CC4CC4)c3c2)CC1`
> 1000 nM

Find the measured IC50 of `Cn1c(-c2cc3cccc(OCCn4cnnc4)c3n2CC2CC2)nc2cc3c(cc21)CCN(C[C@H]1COCCN1)C3=O` with UniProtKB Q9UM07 as test system.
501 to 1000 nM

Lab note: record IC50 of `Cn1c(-c2cc3cccc(OC[C@@H]4COCCN4)c3n2CC2CC2)nc2cc3c(cc21)CCN(C[C@H](N)CF)C3=O` tested on UniProtKB Q9UM07.
> 1000 nM

---

Task for the reader: assign each of the following compounds its reported IC50.
TARGET OR TEST SYSTEM: UniProt:Q9UM07
TEST NAME: RFMS2 assay (RapidFire mass spectrometry, TSTGGRQGSHH peptide substrate)
Format: biochemical
CONDITION DETAILS: 35 nM recombinant human PAD4, 500 μM TSTGGRQGSHH peptide, 30 minutes at room temperature; read-out: RFMS 2 IC50

Report IC50, nothing else, for this compound: Cc1cccc2cc(-c3nc4cc5c(cc4n3C)CCN(C[C@@H](C)N)C5=O)n(CC3CC3)c12 [Example 17]
101 to 500 nM

Tell me measured IC50 for COCCOc1cccc2cc(-c3nc4cc5c(cc4n3C)CCN(C[C@H](N)CF)C5=O)n(CC3CC3)c12 [Example 153] please.
101 to 500 nM

Answer with the recorded IC50 of C[C@@H](N)CN1CCc2cc3c(cc2C1=O)nc(-c1cc2ccccc2n1Cc1ccccn1)n3C [Example 84] only.
101 to 500 nM
